// provenance: the supplement of paper PMC10127200

# Tested on: FB
# Method Notes: Euclidean distance of Cell Painting phenotypic profile (signed KS, 77 features) to DMSO centroid (dimensionless distance); 5 or 10 uM (library dependent); higher = stronger phenotypic change vs DMSO (phenoactivity)
# Assay Setup: 48 h
Where a name gives a salt, the structure may show the parent alone.
Can you tell me Euclidean distance for the items I'm about to list?

Looking for the measured Euclidean distance of Cc1nc(=O)c2cc(CN(C)c3ccc(C(=O)N[C@@H](CCC(=O)O)C(=O)O)s3)ccc2[nH]1 [Raltitrexed] , can you help?
0.633

Looking for the measured Euclidean distance of Cc1ncc(C[n+]2csc(CCO)c2C)c(N)n1 [Thiamine HCl (Vitamin B1)] , can you help?
0.562

Looking for the measured Euclidean distance of CCc1c2c(nc3ccc(OC(=O)N4CCC(N5CCCCC5)CC4)cc13)-c1cc3c(c(=O)n1C2)COC(=O)[C@]3(O)CC [Irinotecan HCl Trihydrate] , can you help?
4.08

Looking for the measured Euclidean distance of OC(Cn1cncn1)(Cn1cncn1)c1ccc(F)cc1F [Fluconazole] , can you help?
1.35

Looking for the measured Euclidean distance of Cc1ccc(N(CC2=NCCN2)c2cccc(O)c2)cc1 [Phentolamine Mesylate] , can you help?
1.19

Looking for the measured Euclidean distance of `O=C(O)c1ccc(CN2CCC(CN[C@@H]3C[C@H]3c3ccccc3)CC2)cc1` , can you help?
1.08

Looking for the measured Euclidean distance of Cc1nccn1CC1CCc2c(c3ccccc3n2C)C1=O (stereo not drawn) [Ondansetron HCl] , can you help?
1.16

Looking for the measured Euclidean distance of Cc1cn(-c2cc(NC(=O)c3ccc(C)c(Nc4nccc(-c5cccnc5)n4)c3)cc(C(F)(F)F)c2)cn1 [Nilotinib (AMN-107)] , can you help?
2.13
